Biological target: Acetylcholinesterase (Homo sapiens)
Sequence (P22303 whole entry): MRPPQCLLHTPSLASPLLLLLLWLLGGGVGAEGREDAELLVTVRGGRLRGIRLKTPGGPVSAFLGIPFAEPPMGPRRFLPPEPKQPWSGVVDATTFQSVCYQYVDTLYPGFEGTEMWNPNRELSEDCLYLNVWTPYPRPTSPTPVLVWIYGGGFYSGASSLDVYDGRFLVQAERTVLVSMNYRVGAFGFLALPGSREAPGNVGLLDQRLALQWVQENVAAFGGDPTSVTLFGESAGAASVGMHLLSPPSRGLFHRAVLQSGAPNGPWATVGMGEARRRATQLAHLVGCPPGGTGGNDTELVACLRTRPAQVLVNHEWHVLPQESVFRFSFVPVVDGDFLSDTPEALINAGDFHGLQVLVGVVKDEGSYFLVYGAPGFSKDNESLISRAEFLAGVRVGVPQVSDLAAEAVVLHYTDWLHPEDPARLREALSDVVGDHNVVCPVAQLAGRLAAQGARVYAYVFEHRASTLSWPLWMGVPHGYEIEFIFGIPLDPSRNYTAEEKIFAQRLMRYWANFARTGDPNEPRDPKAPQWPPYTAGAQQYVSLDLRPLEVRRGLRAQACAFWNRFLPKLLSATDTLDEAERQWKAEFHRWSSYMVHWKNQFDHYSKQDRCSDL
pIC50: −log10 of the molar value.
RECORDED_METRIC: pIC50

1) O=c1c2ccccc2[se]n1-c1ccccc1 = 5.21
2) O=C(Cc1ccccc1)N1c2ccccc2[Se]c2ccccc21 = 5.19
3) COc1ccc(C(=O)N2c3ccccc3Sc3ccccc32)cc1 = 5.20
4) Clc1ccc2c(c1)Nc1ccccc1S2 = 5.13
5) O=C(CCc1ccccc1)N1c2ccccc2Sc2ccc(Cl)cc21 = 5.10
6) COc1cccc(C(=O)N2c3ccccc3[Se]c3ccc(Cl)cc32)c1 = 5.23
7) c1ccc2c(c1)Nc1ccccc1[Se]2 = 5.25
8) O=C(c1ccccc1)N1c2ccccc2[Se]c2ccc(Cl)cc21 = 5.22
9) O=C(c1ccccc1)N1c2ccccc2Sc2ccccc21 = 5.10
10) O=C(CCc1ccccc1)N1c2ccccc2Sc2ccccc21 = 5.15
11) O=C(Cc1ccccc1)N1c2ccccc2[Se]c2ccc(Cl)cc21 = 5.19
12) COc1cccc(C(=O)N2c3ccccc3Sc3ccc(Cl)cc32)c1 = 5.34

====

Molecular target: Amyloid-beta precursor protein (Homo sapiens) (UniProt P05067)
Sequence (P05067 whole entry): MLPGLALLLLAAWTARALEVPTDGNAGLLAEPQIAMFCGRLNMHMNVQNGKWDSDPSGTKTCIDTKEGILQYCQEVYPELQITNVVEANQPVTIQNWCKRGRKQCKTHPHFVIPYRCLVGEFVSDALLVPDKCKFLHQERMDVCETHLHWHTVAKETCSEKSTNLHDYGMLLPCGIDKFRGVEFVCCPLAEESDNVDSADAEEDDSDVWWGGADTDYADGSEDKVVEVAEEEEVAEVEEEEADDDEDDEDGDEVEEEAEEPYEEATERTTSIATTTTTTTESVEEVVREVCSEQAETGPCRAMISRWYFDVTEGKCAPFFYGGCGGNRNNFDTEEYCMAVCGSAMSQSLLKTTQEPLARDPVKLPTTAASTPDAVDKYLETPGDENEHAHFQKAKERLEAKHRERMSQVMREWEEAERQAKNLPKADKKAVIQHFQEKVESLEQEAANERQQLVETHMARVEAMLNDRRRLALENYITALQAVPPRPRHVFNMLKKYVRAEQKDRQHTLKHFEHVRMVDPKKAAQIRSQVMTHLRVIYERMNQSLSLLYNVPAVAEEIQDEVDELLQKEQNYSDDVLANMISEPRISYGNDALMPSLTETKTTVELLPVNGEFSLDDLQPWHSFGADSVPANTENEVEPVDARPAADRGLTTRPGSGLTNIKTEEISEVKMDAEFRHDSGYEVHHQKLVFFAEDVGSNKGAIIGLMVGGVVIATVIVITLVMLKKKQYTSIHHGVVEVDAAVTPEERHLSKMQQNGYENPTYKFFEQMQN
Experiment: Inhibition of amyloid beta (1-42) self-induced aggregation (unknown origin) at 10 uM measured every 5 mins for 16 hrs by thioflavin T fluorescence method relative to control
RECORDED_METRIC: inhibition

1. c1ccc2c(c1)Nc1ccccc1[Se]2 = 30.7%
2. O=S(=O)(O)c1cc(S(=O)(=O)O)c2c(/N=N/c3ccccc3)c(O)ccc2c1 = 31%
3. Clc1ccc2c(c1)Nc1ccccc1[Se]2 = 25.1%
4. COc1ccc(C(=O)N2c3ccccc3[Se]c3ccccc32)cc1OC = 8.7%
5. COc1ccc(C(=O)N2c3ccccc3[Se]c3ccc(Cl)cc32)cc1OC = 9.1%
6. c1ccc2c(c1)Nc1ccccc1S2 [PHENOTHIAZINE] = 59.1%

====

// values below are log10 of IC50; system is Cholinesterase (Homo sapiens, UniProt P06276)
Sequence (P06276 whole entry): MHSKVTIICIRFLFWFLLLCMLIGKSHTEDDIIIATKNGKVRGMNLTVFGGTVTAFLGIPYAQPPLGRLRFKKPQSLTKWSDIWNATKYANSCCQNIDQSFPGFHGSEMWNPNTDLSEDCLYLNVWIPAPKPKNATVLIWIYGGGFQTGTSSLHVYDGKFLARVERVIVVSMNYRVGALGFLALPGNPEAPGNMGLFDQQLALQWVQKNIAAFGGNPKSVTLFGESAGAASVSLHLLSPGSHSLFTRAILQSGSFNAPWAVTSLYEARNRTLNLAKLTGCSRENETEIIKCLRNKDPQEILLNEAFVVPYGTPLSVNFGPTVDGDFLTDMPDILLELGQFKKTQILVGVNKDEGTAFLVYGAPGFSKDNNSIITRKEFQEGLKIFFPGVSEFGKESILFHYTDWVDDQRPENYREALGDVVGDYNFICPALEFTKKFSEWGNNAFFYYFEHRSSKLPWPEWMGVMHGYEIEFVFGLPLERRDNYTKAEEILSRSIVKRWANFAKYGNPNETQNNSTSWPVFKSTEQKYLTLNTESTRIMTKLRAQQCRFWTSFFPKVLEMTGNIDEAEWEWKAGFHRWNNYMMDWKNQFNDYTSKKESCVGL
RECORDED_METRIC: log10 of IC50 (log10 of the value in µM)

1) COc1ccc(C(=O)N2c3ccccc3[Se]c3ccc(Cl)cc32)cc1 = 0.69
2) O=C(Cc1ccccc1)N1c2ccccc2Sc2ccccc21 = 1.58
3) COc1ccc(C(=O)N2c3ccccc3Sc3ccccc32)cc1 = 1.72
4) COc1ccc(C(=O)N2c3ccccc3Sc3ccccc32)cc1OC = 1.65
5) O=C(CCc1ccccc1)N1c2ccccc2Sc2ccccc21 = 1.71
6) O=C(Cc1ccccc1)N1c2ccccc2[Se]c2ccc(Cl)cc21 = 0.70

====

// values below are pIC50; system is Acetylcholinesterase (Homo sapiens)
pIC50: −log10 of the molar value.
RECORDED_METRIC: pIC50

1. COc1ccc(C(=O)N2c3ccccc3[Se]c3ccc(Cl)cc32)cc1OC = 5.21
2. COc1cccc(C(=O)N2c3ccccc3Sc3ccccc32)c1 = 5.21
3. O=C(CCc1ccccc1)N1c2ccccc2[Se]c2ccc(Cl)cc21 = 5.20
4. O=C(Cc1ccccc1)N1c2ccccc2Sc2ccc(Cl)cc21 = 5.12
5. O=C(c1ccccc1)N1c2ccccc2Sc2ccc(Cl)cc21 = 5.00
6. c1ccc2c(c1)Nc1ccccc1S2 = 5.14
7. O=C(Cc1ccccc1)N1c2ccccc2Sc2ccccc21 = 5.13
8. COc1ccc(C(=O)N2c3ccccc3[Se]c3ccccc32)cc1 = 5.34
9. O=C(c1ccccc1)N1c2ccccc2[Se]c2ccccc21 = 5.27
10. COc1ccc(C(=O)N2c3ccccc3[Se]c3ccc(Cl)cc32)cc1 = 5.24
11. COc1ccc(C(=O)N2c3ccccc3[Se]c3ccccc32)cc1OC = 5.29
12. Clc1ccc2c(c1)Nc1ccccc1[Se]2 = 5.20
13. COc1ccc(C(=O)N2c3ccccc3Sc3ccccc32)cc1OC = 5.24
14. O=C(CCc1ccccc1)N1c2ccccc2[Se]c2ccccc21 = 5.17
15. COc1cccc(C(=O)N2c3ccccc3[Se]c3ccccc32)c1 = 5.21
16. COc1ccc(C(=O)N2c3ccccc3Sc3ccc(Cl)cc32)cc1 = 5.23
17. COc1ccc(C(=O)N2c3ccccc3Sc3ccc(Cl)cc32)cc1OC = 5.19

====

Reported inhibition values are given for each entry in this list.
Target: Amyloid-beta precursor protein (Homo sapiens)
Assay: Inhibition of amyloid beta (1-42) self-induced aggregation (unknown origin) at 1 uM measured every 5 mins for 16 hrs by thioflavin T fluorescence method relative to control
RECORDED_METRIC: inhibition

1) c1ccc2c(c1)Nc1ccccc1[Se]2 = 16.3%
2) Clc1ccc2c(c1)Nc1ccccc1[Se]2 = 14.5%
3) c1ccc2c(c1)Nc1ccccc1S2 [PHENOTHIAZINE] = 18.3%
4) O=S(=O)(O)c1cc(S(=O)(=O)O)c2c(/N=N/c3ccccc3)c(O)ccc2c1 = 8.6%
5) COc1ccc(C(=O)N2c3ccccc3Sc3ccc(Cl)cc32)cc1OC = 6.2%
6) COc1ccc(C(=O)N2c3ccccc3[Se]c3ccccc32)cc1OC = 6.3%
7) COc1ccc(C(=O)N2c3ccccc3[Se]c3ccc(Cl)cc32)cc1OC = 8.4%
8) Clc1ccc2c(c1)Nc1ccccc1S2 = 10.3%

====

Reported inhibition (INH) values are given for each entry in this list.
Assay: Antioxidant activity assessed as DPPH free radical scavenging activity at 50 uM incubated for 60 mins in dark relative to control
Assay type: physicochemical
Settings: 1 h
RECORDED_METRIC: inhibition (INH) (%)

1. c1ccc2c(c1)Nc1ccccc1[Se]2 = 84.4
2. COc1ccc(C(=O)N2c3ccccc3Sc3ccccc32)cc1OC = 44.3
3. Clc1ccc2c(c1)Nc1ccccc1[Se]2 = 73.2
4. COc1ccc(C(=O)N2c3ccccc3[Se]c3ccccc32)cc1OC = 39
5. COc1ccc(C(=O)N2c3ccccc3Sc3ccc(Cl)cc32)cc1OC = 46.5
6. O=c1c2ccccc2[se]n1-c1ccccc1 [EBSELEN] = 34.7
7. c1ccc2c(c1)Nc1ccccc1S2 [PHENOTHIAZINE] = 92.1
8. Cc1c(C)c2c(c(C)c1O)CCC(C)(C(=O)O)O2 (stereo not given) [TROLOX] = 99.2
9. COc1ccc(C(=O)N2c3ccccc3[Se]c3ccc(Cl)cc32)cc1OC = 38.3
10. Clc1ccc2c(c1)Nc1ccccc1S2 = 76.4

====

Reported inhibition values are given for each entry in this list.
Target: Amyloid-beta precursor protein (Homo sapiens) (UniProt P05067)
Experiment: Inhibition of amyloid beta (1-42) self-induced aggregation (unknown origin) at 5 uM measured every 5 mins for 16 hrs by thioflavin T fluorescence method relative to control
RECORDED_METRIC: inhibition

1) Clc1ccc2c(c1)Nc1ccccc1S2 = 22%
2) c1ccc2c(c1)Nc1ccccc1[Se]2 = 24.1%
3) COc1ccc(C(=O)N2c3ccccc3[Se]c3ccccc32)cc1OC = 5.7%
4) Clc1ccc2c(c1)Nc1ccccc1[Se]2 = 18.5%
5) COc1ccc(C(=O)N2c3ccccc3[Se]c3ccc(Cl)cc32)cc1OC = 7.9%
6) COc1ccc(C(=O)N2c3ccccc3Sc3ccc(Cl)cc32)cc1OC = 4.5%
7) O=S(=O)(O)c1cc(S(=O)(=O)O)c2c(/N=N/c3ccccc3)c(O)ccc2c1 = 20.4%
8) c1ccc2c(c1)Nc1ccccc1S2 [PHENOTHIAZINE] = 37.2%

====

Reported inhibition values are given for each entry in this list.
Target: Amyloid-beta precursor protein (Homo sapiens)
Assay: Inhibition of amyloid beta (1-42) self-induced aggregation (unknown origin) at 10 uM measured every 5 mins for 16 hrs by thioflavin T fluorescence method relative to control
RECORDED_METRIC: inhibition

1) Clc1ccc2c(c1)Nc1ccccc1S2 = 33.7%
2) COc1ccc(C(=O)N2c3ccccc3Sc3ccc(Cl)cc32)cc1OC = 6.5%

src = ChEMBL document CHEMBL3769338
